molecular target: human KOP receptor (Homo sapiens, UniProt P41145); construct: expressed in transfected cells; host or cells: CHO-hKOP cells (gift of Dr. Lawrence Toll, SRI International); test: [35S]GTPγS binding assay using CHO-hKOP cell membranes; assay type: biochemical; settings: percentage stimulation relative to the KOP full agonist U69,593; read-out: [35S]GTPγS KOP % stim
Sequence (P41145 whole entry): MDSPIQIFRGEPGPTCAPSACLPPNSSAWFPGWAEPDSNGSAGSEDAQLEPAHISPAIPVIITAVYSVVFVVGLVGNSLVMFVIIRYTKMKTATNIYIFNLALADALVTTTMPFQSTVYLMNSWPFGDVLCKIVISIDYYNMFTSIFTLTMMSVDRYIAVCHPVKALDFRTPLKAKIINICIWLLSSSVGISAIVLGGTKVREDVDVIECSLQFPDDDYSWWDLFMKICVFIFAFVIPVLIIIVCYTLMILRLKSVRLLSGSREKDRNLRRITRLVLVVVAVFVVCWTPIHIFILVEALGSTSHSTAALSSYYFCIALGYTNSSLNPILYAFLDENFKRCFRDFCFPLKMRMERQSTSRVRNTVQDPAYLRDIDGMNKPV
Collected Emax values appear next to each entry.
value kind: Emax (%)

[
  {
    "given smiles": "Cl.Oc1cccc(CCN(CCc2ccccc2)Cc2ccccc2)c1",
    "value kind": "Emax",
    "measurement unit": "%",
    "comparator": "≥",
    "reported measurement": 80
  },
  {
    "given smiles": "Cl.Oc1ccc(CCN(CCc2cccc(O)c2)CC2CCC2)cc1",
    "value kind": "Emax",
    "measurement unit": "%",
    "comparator": "=",
    "reported measurement": 76.4
  },
  {
    "given smiles": "CC(C)CCN(CCc1ccccc1)CCc1cccc(O)c1.Cl",
    "value kind": "Emax",
    "measurement unit": "%",
    "comparator": "=",
    "reported measurement": 74.7
  },
  {
    "given smiles": "C=CCN(CCc1cccc(O)c1)CCc1cccc(O)c1.Cl",
    "value kind": "Emax",
    "measurement unit": "%",
    "comparator": "=",
    "reported measurement": 37.5
  },
  {
    "given smiles": "Cl.Oc1cccc(CCN(CCc2ccccc2)C2CCC2)c1",
    "value kind": "Emax",
    "measurement unit": "%",
    "comparator": "=",
    "reported measurement": 50.7
  }
]

Cited source: paper PMC5601360
